Below, each entry is listed alongside its reported inhibition.
# tested system: Protein kinase C zeta type (Homo sapiens)
# assay: Inhibition of PKCz at 30 uM by microfluidic mobility shift assay
Numbers only; they are read as %.

CC(C)(C)c1cc2nn(-c3ccccc3)c(N)c2c(=O)[nH]1    -1

Just so you know, measured inhibition for COCCNc1nc(C)cc2c1c(N)nn2C came out at -10

inhibition reading for Cn1nc2c3c(nc(-c4ccccc4)cc31)NCC(=O)N2 : 5

Record Nc1n[nH]c2cc(-c3cccnc3)[nH]c(=O)c12 , field inhibition: 1

Entry CC(=O)Nc1nn(C)c2cc(-c3ccc(N4CCN(C)CC4)cc3)[nH]c(=O)c12 ; inhibition = 6

Entry Nc1n[nH]c2cc(-c3ccccn3)[nH]c(=O)c12 , inhibition reported as 3
